Target: T1, hu-sCD47-6His; extracellular domain of human CD47 antigen with 6His-tag (human)
T1 construct: also called hCD47-his; soluble hCD47
Test: SPR Biacore; head read as x 10^-4
ASSAY METRIC: koff (s⁻¹)
Answers are plain numbers, in s⁻¹.

Example results:
BINDER	koff [s⁻¹]
h20-VH2-VL4 (candidate 20.9) (antibody, human IgG4 S228P, kappa, V domains shown, hIgG4-S228P/kappa; also called h20-H2-L4) VH: QVQLVQSGAEVKKPGASVKVSCKASGYSFTDYYINWVRQAPGQGLEWMGRIYPGIGNTYYNKKFKGRVTITRDTSASTAYMELSSLRSEDTAVYYCARGHYGRGMDYWGQGTLVTVSS VL: DIVMTQSPDSLAVSLGERATINCKSSQSLLNSIDQKNYLAWYQQKPGQPPKLLIYFASTKESGVPDRFSGSGSGTDFTLTISSLQAEDVAVYFCQQHYSTPWTFGGGAKVEIKR	0.000632
h20-VH1-VL4 (candidate 20.4) (antibody, human IgG4 S228P, kappa, V domains shown, hIgG4-S228P/kappa; also called h20-H1-L4) VH: QVQLLESGAVLARPGTSVKISCKASGYSFTDYYINWVKQRPGQGLEWIGRIYPGIGNTYYNKKFKGRAKLTAATSASIAYLEFSSLTNEDSAVYYCARGHYGRGMDYWGQGTLVTVSS VL: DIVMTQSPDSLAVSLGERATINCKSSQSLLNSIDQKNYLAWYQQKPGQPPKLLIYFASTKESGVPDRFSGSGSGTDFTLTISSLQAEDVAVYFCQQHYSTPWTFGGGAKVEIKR	0.000772
h20-VH2-VL5 (candidate 20.10) (antibody, human IgG4 S228P, kappa, V domains shown, hIgG4-S228P/kappa; also called h20-H2-L5) VH: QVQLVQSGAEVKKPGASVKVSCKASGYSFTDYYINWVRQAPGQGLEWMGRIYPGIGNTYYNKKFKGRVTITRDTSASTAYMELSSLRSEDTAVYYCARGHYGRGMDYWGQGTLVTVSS VL: DIVMTQSPDSLAVSLGERATINCKSSQSLLNSIDQKNYLAWYQQKPGQPPKLLIYFASTKESGVPDRFSGSGSGTDFTLTISGLQAEDVAVYFCQQHYSTPWTFGGGTKVEIRR	0.000634
h20-VH5-VL3 (candidate 20.23) (antibody, human IgG4 S228P, kappa, V domains shown, hIgG4-S228P/kappa; also called h20-H5-L3) VH: QVQLVQSGAEVKKPGASVKVSCKASGYSFTDYYINWVRQAPGQGLEWMGRIYPGIGNTYYNKKFKGRVTMTRYTSISTAYMELSRLRSDDTAVYFCARGHYGRGMDYWGQGTTVTVSS VL: EIVLTQSPDSLAVSLGERATINCKSSQSLLNSIDQKNYLAWYQQKAGQSPKLLIYFASTKESGVPDRFSGSGSGTDFTLTIDSLQAEDVAVYYCQQHYSTPWTFGGGTKVEIKR	0.000841

Required: koff, one value per binder below.
1. h20-VH5-VL4 (candidate 20.24) (antibody, human IgG4 S228P, kappa, V domains shown, hIgG4-S228P/kappa; also called h20-H5-L4) VH: QVQLVQSGAEVKKPGASVKVSCKASGYSFTDYYINWVRQAPGQGLEWMGRIYPGIGNTYYNKKFKGRVTMTRYTSISTAYMELSRLRSDDTAVYFCARGHYGRGMDYWGQGTTVTVSS VL: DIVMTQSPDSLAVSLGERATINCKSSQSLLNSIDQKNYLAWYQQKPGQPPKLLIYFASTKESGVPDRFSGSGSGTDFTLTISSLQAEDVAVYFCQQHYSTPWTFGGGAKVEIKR
2. h20-VH5-VL5 (candidate 20.25) (antibody, human IgG4 S228P, kappa, V domains shown, hIgG4-S228P/kappa; also called h20-H5-L5) VH: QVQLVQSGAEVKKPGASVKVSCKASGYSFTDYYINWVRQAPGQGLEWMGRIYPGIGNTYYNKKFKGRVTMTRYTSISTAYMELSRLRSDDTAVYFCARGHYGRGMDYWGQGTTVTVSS VL: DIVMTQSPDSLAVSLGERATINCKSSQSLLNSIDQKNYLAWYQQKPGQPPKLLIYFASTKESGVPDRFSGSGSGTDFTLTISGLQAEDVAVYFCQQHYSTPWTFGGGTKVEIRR
3. h20-VH4-VL5 (candidate 20.20) (antibody, human IgG4 S228P, kappa, V domains shown, hIgG4-S228P/kappa; also called h20-H4-L5) VH: QVQLVQSGAEVKKPGSSVKVSCKASGYSFTDYYINWVRQAPGQGLEWMGRIYPGIGNTYYNKKFKGRVTITADKSTSTAYMELSSLRSEDTAVYYCARGHYGRGMDYWGQGTTVTVSS VL: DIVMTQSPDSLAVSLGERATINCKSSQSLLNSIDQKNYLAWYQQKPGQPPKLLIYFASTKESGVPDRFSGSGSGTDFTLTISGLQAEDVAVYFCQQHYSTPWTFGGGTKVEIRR
4. h20-VH2-VL3 (candidate 20.8) (antibody, human IgG4 S228P, kappa, V domains shown, hIgG4-S228P/kappa; also called h20-H2-L3) VH: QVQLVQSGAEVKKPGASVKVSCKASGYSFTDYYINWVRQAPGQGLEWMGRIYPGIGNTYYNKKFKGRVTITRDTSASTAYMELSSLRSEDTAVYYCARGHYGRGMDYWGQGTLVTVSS VL: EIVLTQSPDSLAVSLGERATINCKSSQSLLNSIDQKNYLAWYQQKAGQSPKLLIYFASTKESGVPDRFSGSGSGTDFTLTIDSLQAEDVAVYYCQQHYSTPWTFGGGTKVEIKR
5. h20-VH4-VL4 (candidate 20.19) (antibody, human IgG4 S228P, kappa, V domains shown, hIgG4-S228P/kappa; also called h20-H4-L4) VH: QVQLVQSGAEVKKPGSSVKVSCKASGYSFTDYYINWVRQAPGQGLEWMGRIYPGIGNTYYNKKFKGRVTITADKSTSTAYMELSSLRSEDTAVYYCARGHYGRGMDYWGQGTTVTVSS VL: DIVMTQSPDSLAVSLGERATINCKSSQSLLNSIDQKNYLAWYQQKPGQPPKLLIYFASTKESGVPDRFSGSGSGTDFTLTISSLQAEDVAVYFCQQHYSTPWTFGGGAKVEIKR
6. h20-VH3-VL5 (candidate 20.15) (antibody, human IgG4 S228P, kappa, V domains shown, hIgG4-S228P/kappa; also called h20-H3-L5) VH: QVQLVQSGAEVKKPGASVKVSCKASGYSFTDYYINWVRQAPGQGLEWMGRIYPGIGNTYYNKKFKGRVTVTRDTSISTAHMELSSLRSDDTAVYYCARGHYGRGMDYWGQGTAVTVSS VL: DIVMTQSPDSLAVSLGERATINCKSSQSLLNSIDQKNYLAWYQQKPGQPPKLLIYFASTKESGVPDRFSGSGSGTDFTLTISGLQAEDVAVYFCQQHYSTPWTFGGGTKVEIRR

Result string:
1. 0.00102
2. 0.00109
3. 0.000624
4. 0.000628
5. 0.000685
6. 0.000528
